This collection of values is drawn from ChEMBL document CHEMBL3137667.

details: human
property-name: Hepatotoxicity (severe hepatitis)

* CCCN(CCC)C(=O)Cc1c(-c2ccc(Cl)cc2)nc2ccc(Cl)cn12 | 5
* CC(c1cc2ccccc2s1)N(O)C(N)=O (stereo not drawn) | 0
* CC1(C)S[C@@H]2[C@H](NC(=O)Cc3ccccc3)C(=O)N2[C@H]1C(=O)O | 1
* Cc1cccc(C)c1OCC(=O)N[C@@H](Cc1ccccc1)[C@@H](O)C[C@H](Cc1ccccc1)NC(=O)[C@H](C(C)C)N1CCCNC1=O | 0
* S=P(N1CC1)(N1CC1)N1CC1 | 2
* CC(C)[C@@H]1NC(=O)[C@H](CCCCN)NC(=O)[C@@H](Cc2c[nH]c3ccccc23)NC(=O)[C@H](Cc2ccc(O)cc2)NC(=O)[C@@H](NC(=O)[C@H](N)Cc2ccc3ccccc3c2)CSSC[C@@H](C(=O)N[C@H](C(N)=O)[C@@H](C)O)NC1=O [LANREOTIDE] | 0
* CN1C[C@H](C(=O)N[C@]2(C)O[C@@]3(O)[C@@H]4CCCN4C(=O)[C@H](Cc4ccccc4)N3C2=O)C=C2c3cccc4[nH]cc(c34)C[C@H]21 | 0
* COc1ccc2cc(CCC(C)=O)ccc2c1 | 0

* * *

conditions: human, serum
property-name: Hepatotoxicity (moderate)

• COc1ccc(Cl)cc1C(=O)NCCc1ccc(S(=O)(=O)NC(=O)NC2CCCCC2)cc1 [GLYBURIDE] = 7
• NC(=O)NO [HYDROXYUREA] = 5
• O=C1Nc2ccc(Cl)cc2[C@@](C#CC2CC2)(C(F)(F)F)O1 [EFAVIRENZ] = 2
• Cc1ccc(S(=O)(=O)NC(=O)NC2CCCCC2)cc1N [METAHEXAMIDE] = 6
• O=C(Oc1ccccc1C(=O)O)c1ccccc1O [SALSALATE] = 1
• CN1C2CCCC1CC(NC(=O)c1nn(C)c3ccccc13)C2 (centres undefined) [GRANISETRON] = 2
• CCN1CCC[C@H]1CNC(=O)c1c(O)c(Cl)cc(Cl)c1OC [RACLOPRIDE] = 1
• CN(C)CCC(c1ccc(Cl)cc1)c1ccccn1.O=C(O)/C=C\C(=O)O (centres undefined) [CHLORPHENIRAMINE MALEATE] = 0
• CN1C(C(=O)Nc2ccccn2)=C(O)c2sccc2S1(=O)=O [TENOXICAM] = 8
• CC(C(=O)O)c1ccc2c(c1)[nH]c1ccc(Cl)cc12 (centres undefined) [CARPROFEN] = 5
• NCCCC[C@H](N[C@@H](CCc1ccccc1)C(=O)O)C(=O)N1CCC[C@H]1C(=O)O [LISINOPRIL ANHYDROUS] = 4
• COC(=O)C1=C(C)NC(C)=C(C(=O)OCC(C)C)C1c1ccccc1[N+](=O)[O-] (centres undefined) [NISOLDIPINE] = 1
• CCn1cc(C(=O)O)c(=O)c2cc(F)c(N3CCNCC3)nc21 [ENOXACIN] = 6
• NS(=O)(=O)c1cc(C(=O)O)cc(N2CCCC2)c1Oc1ccccc1 [PIRETANIDE] = 0
• CNC(=O)[C@@H](NC(=O)[C@H](CC(C)C)[C@H](O)C(=O)NO)C(C)(C)C = 1
• CCN(CC)CCOC(=O)[C@@H](Cc1cccc2ccccc12)C[C@@H]1CCCO1 [NAFTIDROFURYL] = 0
• CCCN1C[C@H](CSC)C[C@@H]2c3cccc4[nH]cc(c34)C[C@H]21 [PERGOLIDE] = 3
• CC(C)NCC(O)c1ccc(NS(C)(=O)=O)cc1 (centres undefined) [SOTALOL] = 0
• O=C(NCCN1CCN(c2cccc3c2OC[C@H](CO)O3)CC1)c1ccc(F)cc1 [FLESINOXAN] = 1

* * *

Below is a list of entries, each paired with its recorded Hepatotoxicity (cytolytic) value.
conditions: human
*1 amine or outer side, *2 acyl side, *3 side chain or, on linkers, in order; H or OH if unused. Where a SMILES comes first, the peptide text is derived from it. Bridges are numbered along the chain shown (N, C = ends). [ ]: non-standard residue; d: D form. The star is where a group is joined. ξ: configuration not given here. X2 = N=C1NCCC([C@H](N[*:1])C(=O)[*:2])N1; ΔAla(Z-3-ureido) = NC(=O)N/C=C(\N)C(=O)O; ξβ3hOrn = NCCCC(N)CC(=O)*; Dap = NC[C@H](N)C(=O)O
property-name: Hepatotoxicity (cytolytic)

- C=C(CC)C(=O)c1ccc(OCC(=O)O)c(Cl)c1Cl: 2
- OC(c1cc(C(F)(F)F)nc2c(C(F)(F)F)cccc12)C1CCCCN1 (stereo unspecified): 1
- CN1CCOC(c2ccccc2)c2ccccc2C1 (stereo unspecified): 0
- Clc1ccccc1C(c1ccccc1)(c1ccccc1)n1ccnc1: 0
- COC(=O)C1=C(C)NC(C)=C(C(=O)OC)C1c1ccccc1[N+](=O)[O-]: 5
- CC[C@H]1OC(=O)[C@H](C)[C@@H](O[C@H]2C[C@@](C)(OC)[C@@H](O)[C@H](C)O2)[C@H](C)[C@@H](O[C@@H]2O[C@H](C)C[C@H](N(C)C)[C@H]2O)[C@](C)(O)C[C@@H](C)CN(C)[C@H](C)[C@@H](O)[C@]1(C)O: 0
- NCC1CC(=O)N(Cc2ccccc2)C1 (stereo unspecified): 0
- Cc1c(C(C)C)c(=O)n(-c2ccccc2)n1C: 1
- COc1ccc(OC[C@H]2CN(C)CC[C@@H]2c2ccccc2)cc1: 1
- Cc1nnc2n1-c1ccc(Cl)cc1C(c1ccccc1Cl)=NC2: 1
- CN(Cc1cnc2nc(N)nc(N)c2n1)c1c(Cl)cc(C(=O)N[C@@H](CCC(=O)O)C(=O)O)cc1Cl: 0
- N[C@@H]1[C@H]2CN(c3nc4c(cc3F)c(=O)c(C(=O)O)cn4-c3ccc(F)cc3F)C[C@@H]12: 6
- C#CC(C)(O)CC (stereo unspecified): 0
- O=C(O[C@@H]1C[C@@H]2C[C@H]3C[C@H](C1)N2CC3=O)c1c[nH]c2ccccc12: 0
- CN1CCN(CCCN2c3ccccc3Sc3ccc(S(=O)(=O)N(C)C)cc32)CC1: 2
- CCC(Cc1c(I)cc(I)c(N)c1I)C(=O)O (stereo unspecified): 1
- CC[N+](C)(C/C=C/C1=C(C(=O)[O-])N2C(=O)[C@@H](NC(=O)/C(=N\OCF)c3nsc(N)n3)[C@H]2SC1)CC(N)=O (stereo partly specified): 0
- CC(=O)OCC1=C(C(=O)O)N2C(=O)[C@@H](NC(=O)CSc3ccncc3)[C@H]2SC1: 0
- O=NN(CCCl)C(=O)N[C@H]1C(O)O[C@H](CO)[C@@H](O)[C@@H]1O (stereo partly specified): 1
- CC[C@H]1[C@@H]2C[C@H]3[C@@H]4N(C)c5ccccc5[C@]45C[C@@H]([C@@H]2[C@H]5O)N3[C@@H]1O: 6
- NCC(=O)CCC(=O)O: 0
- Cc1ncc(CNC(=O)N(CCCl)N=O)c(N)n1: 0
- Nc1ccc(C(=O)O)cc1: 2
- O=[N+]([O-])O[C@H]1CO[C@H]2[C@@H]1OC[C@H]2O[N+](=O)[O-] [ISOSORBIDE DINITRATE]: 0
- C[C@@H]1NC(=O)[C@@H](N)CNC(=O)[C@H](C2CCNC(=N)N2)NC(=O)/C(=C/NC(N)=O)NC(=O)[C@H](CNC(=O)CC(N)CCCN)NC1=O.N=C1NCCC([C@@H]2NC(=O)/C(=C/NC(N)=O)NC(=O)[C@H](CNC(=O)CC(N)CCCN)NC(=O)[C@H](CO)NC(=O)[C@@H](N)CNC2=O)N1 (stereo partly drawn) [CAPREOMYCIN] (H-[Dap]S[Dap](ξβ3hOrn)[ΔAla(Z-3-ureido)][X2]; lactam 1-C): 0
- O=C(CCOCCOCCOCCOCCC(=O)Nc1c(I)cc(I)c(C(=O)O)c1I)Nc1c(I)cc(I)c(C(=O)O)c1I: 0
- CC(C)[C@](O)(C(=O)OCC1=CC[N+]2([O-])CC[C@@H](O)[C@@H]12)[C@H](C)O (stereo partly specified) [INDICINE N-OXIDE]: 4
- CCCCCN(C)CCC(O)(P(=O)(O)O)P(=O)(O)O: 0
- CCN1CC(CCN2CCOCC2)C(c2ccccc2)(c2ccccc2)C1=O (stereo unspecified): 1
- CC(=O)Oc1ccc(C(=C2CCCCC2)c2ccc(OC(C)=O)cc2)cc1: 3
- CC(C)(N)C(=O)N[C@H](COCc1ccccc1)C(=O)N1CCC2(CC1)CN(S(C)(=O)=O)c1ccccc12: 0

* * *

conditions: human
property-name: Hepatotoxicity (severe hepatitis)

- CCOC(=O)OC(C)OC(=O)[C@@H]1N2C(=O)[C@@H](NC(=O)[C@H](N)c3ccccc3)[C@H]2SC1(C)C (some centres not stated) [BACAMPICILLIN]: 0
- CCCN1CCO[C@@H]2c3cc(O)ccc3CC[C@H]21 [NAXAGOLIDE]: 0
- Cc1cccc(C)c1NC(=O)C(C)N (configuration not stated) [TOCAINIDE]: 0
- CN1CCN(C(c2ccccc2)c2ccccc2)CC1 [CYCLIZINE]: 0
- CN1C(C(=O)Nc2ccccn2)=C(O)c2ccccc2S1(=O)=O [PIROXICAM]: 5
- CC(=O)[C@H]1CC[C@H]2[C@@H]3CC[C@H]4C[C@H](O)CC[C@]4(C)[C@H]3C(=O)C[C@]12C.C[C@]12CC[C@@H](O)C[C@@H]1CC[C@H]1[C@@H]3CC[C@H](C(=O)CO)[C@@]3(C)CC(=O)[C@@H]12: 0
- O=C(O)Cc1cn(-c2ccccc2)nc1-c1ccc(Cl)cc1 [LONAZOLAC]: 0
- Oc1c(Cl)c(Cl)c(Cl)c(Cl)c1Cl [PENTACHLOROPHENOL]: 0
- CC(C)CCOc1ccc(NC(=S)Nc2ccc(OCCC(C)C)cc2)cc1 [TIOCARLIDE]: 0
- COc1cc(C(=O)NCc2ccc(OCCN(C)C)cc2)cc(OC)c1OC [TRIMETHOBENZAMIDE]: 0
- CCn1nc(C(=O)O)c(=O)c2cc3c(cc21)OCO3 [CINOXACIN]: 0
- Nc1ncnc2c1ncn2[C@@H]1O[C@H](CO)[C@@H](O)[C@@H]1O [VIDARABINE]: 1
- CC(=O)N[C@@H]1[C@H](Oc2c3cc4cc2Oc2ccc(cc2Cl)[C@@H](O[C@@H]2O[C@@H](CO)[C@@H](O)[C@H](O)[C@@H]2NC(C)=O)[C@@H]2NC(=O)[C@H](NC(=O)[C@@H]4NC(=O)[C@H]4NC(=O)[C@@H](Cc5ccc(c(Cl)c5)O3)NC(=O)[C@H](N)c3ccc(O)c(c3)Oc3cc(O)cc4c3)c3ccc(O)c(c3)-c3c(O[C@H]4O[C@H](CO)[C@@H](O)[C@@H](O)[C@@H]4O)cc(O)cc3[C@@H](C(=O)O)NC2=O)O[C@@H](CO)[C@@H](O)[C@@H]1O: 0
- C#C[C@]1(O)CC[C@H]2[C@@H]3CCC4=CCCC[C@@H]4[C@H]3CC[C@@]21C [LYNESTRENOL]: 0
- CO[C@@H]1[C@@H](N)[C@@H](O[C@H]2[C@H](Oc3cccc4c(O)c5c(=O)oc6ccc(C)c7c(=O)oc(c34)c5c67)O[C@H](C)[C@H](O)[C@]2(C)O)O[C@H](C)[C@@H]1O [ELSAMITRUCIN]: 1
- Nc1cc(-c2ccncc2)c[nH]c1=O [INAMRINONE]: 0
- CCc1nc(N)nc(N)c1-c1ccc(Cl)cc1 [PYRIMETHAMINE]: 0
